Target: UniProtKB P49655
Sequence (P49655 1-379): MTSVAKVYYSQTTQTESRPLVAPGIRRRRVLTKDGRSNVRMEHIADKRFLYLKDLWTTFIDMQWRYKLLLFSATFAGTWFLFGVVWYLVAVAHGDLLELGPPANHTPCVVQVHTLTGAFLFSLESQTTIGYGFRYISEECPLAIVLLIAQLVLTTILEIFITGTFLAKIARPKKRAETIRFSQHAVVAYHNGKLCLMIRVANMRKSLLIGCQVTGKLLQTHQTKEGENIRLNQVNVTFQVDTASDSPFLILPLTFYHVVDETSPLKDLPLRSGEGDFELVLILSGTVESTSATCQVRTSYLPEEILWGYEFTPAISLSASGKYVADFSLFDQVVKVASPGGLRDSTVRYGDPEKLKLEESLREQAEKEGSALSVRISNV
Test: inside-out patch clamp, HEK293
MEASURED_QUANTITY: pIC50
Please express pIC50 as -log10 of the molar concentration.

Ask: Under UniProtKB P49655: pIC50 value of CCN(CC)CCCC(C)Nc1c2ccc(Cl)cc2nc2ccc(OC)cc12 (stereo not shown) ?
Result: 5.74

The measurements presented in this section are drawn from paper PMC5502112.
